test system: SN12C; test: NCI tumour cell line growth inhibition, 48 h
The source made the active and inactive calls. Rule as the data show it: active = GI50 up to about 1.1 µM and inactive = higher.
metric.name: GI50

Here are 5 compounds together with their reported answers.
{"columns": ["compound", "GI50"],
 "data": [
  ["NC(=O)Nc1c(Cl)cc(S(N)(=O)=O)cc1Cl", "> 100 µM (inactive)"],
  ["CC(=O)Oc1ccc2c(c1)oc1c3ccc(OC(C)=O)cc3n(C)c(=O)c21", "27.2 µM (inactive)"],
  ["Nc1ccc(N(S(=O)(=O)c2ccccc2)S(=O)(=O)c2ccccc2)c(Cl)c1", "75.9 µM (inactive)"],
  ["COc1ccc(N2C(=O)/C(=C\\c3cccc(Oc4ccccc4)c3)SC2c2ccccc2)cc1 (centres undefined)", "> 100 µM (inactive)"],
  ["Cc1c(C(=O)OCc2ccccc2)[n+]([O-])c2cc(Cl)c(Cl)cc2[n+]1[O-]", "18.1 µM (inactive)"]
]}

Query: # get_value(readout= GI50, system= SN12C) for CC(C)C1=CC23CCC4C(C)(C(=O)O)CCCC4(C)C2CC1C1C(=O)N(c2ccccc2N2C(=O)C4C5CC6C7(C)CCCC(C)(C(=O)O)C7CCC6(C=C5C(C)C)C4C2=O)C(=O)C13 (centres undefined)
Result: 9.06 µM (inactive)

Query: Repeat for the following compound: N#C/C=C1\C=CC(O)C(O)C1OC1OC(CO)C(O)C(O)C1O (centres undefined)
Result: > 100 µM (inactive)

Query: Repeat for the following compound: CC(C)(C)C1=C(Br)C(Br)(C(C)(C)C)OP1(=O)c1ccccc1 (centres undefined)
Result: > 100 µM (inactive)

Query: Repeat for the following compound: C[N+]1([O-])C2CCC1CC(OC(=O)C(CO)c1ccccc1)C2 (centres undefined)
Result: > 81.7 µM (inactive)
